# Tested on: Mycobacterium tuberculosis
# assay-overview: Antimycobacterial activity against Mycobacterium tuberculosis H37Rv measured after 5 days by MTT dye based two-fold microdilution method
# Type: functional
# conditions: 120 h
Lab note: anything with MIC below 40 µM is marked class 1; values at 40 µM or higher are marked class 0.

Query string: I'd appreciate it if you could check whether CCCCCCCCCCCCCc1cn(CC(=O)OCC)nn1 has MIC smaller than 40 µM.
Result string: class 0

Query string: Can you handle CCCCCCCCCCCCCCCc1cn(CC(=O)OCC)nn1 next?
Result string: class 1

Query string: # iterate: CCCCCCCCCCc1cn(CC(=O)OCC)nn1
Result string: class 1

Query string: Param item: CCCCCCCCCCCCCn1cc(C(=O)OC)nn1
Result string: class 0

Query string: Request: CCCCCCCCn1cc(CO)nn1
Result string: class 0

Query string: And what about the molecule CCCc1cn(CCCCCC(=O)OCC)nn1 ?
Result string: class 0

Query string: Same for CCCCCCCCCCCCCn1cc(CO)nn1
Result string: class 0

Query string: Proceed to CCCCCCCCCCc1cn(CCCC(=O)OCC)nn1
Result string: class 0

Query string: Another: CCCCCc1cn(CC(=O)OCC)nn1
Result string: class 0

Query string: Next up: CCCCCCCCCCn1cc(CO)nn1
Result string: class 0

Query string: Same for CCCCCCCCc1cn(CCCC(=O)OCC)nn1
Result string: class 1

Query string: Entry CCCCCCCCc1cn(CCC(=O)OCC)nn1 please
Result string: class 1

* * *

# System: Mycobacterium tuberculosis
# assay-overview: Antimycobacterial activity against Mycobacterium tuberculosis H37Rv measured after 5 days by MTT dye based two-fold microdilution method
# Format: functional
# conditions: 120 h
Kindly supply the reported MIC values for the records listed here.

Query string: Which MIC value is on record for CCCCCCCCCCc1cn(CCCCC(=O)OCC)nn1 ?
Result string: 37 µM

Query string: And the next one, CCCCCCCCc1cn(CCCCCC(=O)OCC)nn1 ?
Result string: 309 µM

Query string: Similarly, CCCCCc1cn(CCCCC(=O)OCC)nn1 ?
Result string: 23 µM

Query string: Also CCCCCCCCCCn1cc(C(=O)OC)nn1 ?
Result string: 23 µM

Query string: Same question, CCCCCc1cn(CCCC(=O)OCC)nn1 this time
Result string: 12 µM

Query string: Repeat for the following compound: CCCCCCCCCCn1cc(C(=O)O)nn1
Result string: 20 µM

Query string: Next entry: CCCCCc1cn(CCCCCC(=O)OCC)nn1
Result string: 22 µM

Query string: Try CCCCCCCCn1cc(C(=O)O)nn1 next.
Result string: 14 µM

Query string: Try CCCCCCCCc1cn(CC(=O)OCC)nn1 next.
Result string: 1.9 µM

Query string: One more compound: CCCCCCCCCCc1cnnn1CC(=O)OCC
Result string: 84 µM

Query string: Here is the next compound: CCCCCCCCCCc1cn(CCC(=O)OCC)nn1
Result string: 20 µM

Query string: Request: CCCCCCCCc1cnnn1CC(=O)OCC
Result string: 93 µM

Query string: Would you mind doing CCCc1cn(CC(=O)OCC)nn1 as well?
Result string: 505 µM

Query string: Follow-up item: CCCCCCCCn1cc(C(=O)OC)nn1
Result string: 52 µM
